Origin of measurements: patent US20260116921A1

Test: in vitro
Conditions: both, SD, rat, plasma (EDTA)
I'd appreciate it if you could supply half-life at 20 μM values for the items below.

Look over these answered cases.
CC(=O)NCCCC[C@@H]1NC(=O)[C@H](Cc2c[nH]c3c(C)cccc23)NC(=O)[C@H]([C@@H](C)O)NC(=O)[C@H](CC(N)=O)NC(=O)[C@@H](NC(C)=O)C(C)(C)SSC(C)(C)[C@@H](C(=O)N[C@@H](Cc2ccc(OCCN)cc2)C(=O)N[C@@H](Cc2ccc3ccccc3c2)C(=O)N[C@@](C)(CCCCN)C(=O)N[C@@H](CCCCNC(C)=O)C(=O)N[C@@H](CC(N)=O)C(=O)N2CCC[C@H]2C(N)=O)NC1=O [compound 253]    > 24 h
CC(=O)NCCCC[C@@H]1NC(=O)[C@@H](NC(C)=O)C(C)(C)SSC(C)(C)[C@@H](C(=O)N[C@@H](Cc2ccc(OCCN)cc2)C(=O)N[C@@H](Cc2ccc3ccccc3c2)C(=O)N[C@@](C)(CCCCN)C(=O)N[C@@H](CCCCNC(C)=O)C(=O)N[C@@H](CC(N)=O)C(=O)NCCC(N)=O)NC(=O)[C@H](CCC(N)=O)NC(=O)[C@H](Cc2c[nH]c3c(C)cccc23)NC(=O)[C@H]([C@@H](C)O)NC1=O [compound 239]    > 24 h

Please look at the following compound next.
The reported value for CC(=O)NCCCC[C@H](NC(=O)[C@](C)(CCCCN)NC(=O)[C@H](Cc1ccc2ccccc2c1)NC(=O)[C@H](Cc1ccc(OCCN)cc1)NC(=O)[C@H]1NC(=O)[C@H](CCC(N)=O)NC(=O)[C@H](Cc2c(C(C)(C)C)[nH]c3c(C(C)(C)C)cc(C(C)(C)C)cc23)NC(=O)[C@H]([C@@H](C)O)NC(=O)[C@H](CC(N)=O)NC(=O)[C@@H](NC(C)=O)C(C)(C)SSC1(C)C)C(=O)N[C@@H](CC(N)=O)C(=O)NCCC(N)=O [compound 233] in terms of half-life at 20 μM is > 24 h
